# subjectOfTest: M18 aspartyl aminopeptidase (Plasmodium falciparum 3D7)
# runDescription: inhibition of P. falciparum M18 aspartyl aminopeptidase – biochemical, QFRET fluorogenic substrate, dose response (AID 588678)
# details: recombinant PFM18AAP, H-Glu-NHMec fluorogenic substrate cleavage
Assignment: determine reported pIC50 for the given molecules.
Give bare numbers, as −log10 of the molar value.

Examples with their reported pIC50 follow.
Cc1ccc(-c2nc(-c3ccc(O)c(O)c3)cs2)cc1; 5.02
Cc1nc(NCCc2ccc(O)c(O)c2)c2c3c(sc2n1)CCC3; 4.86
O=S1(=O)c2ccccc2-c2cc(-c3nc(-c4ccc(O)c(O)c4)[nH]c3-c3ccccc3)ccc21; 4.77
Oc1ccc(CCNc2cncc3ccccc23)cc1O; 4.94
Nc1cc(C(=O)c2ccccc2)ccc1O; 4.29
Oc1ccc(CCNc2ccc3ccccc3c2)cc1O; 4.94

# batch size: 4; output pIC50 per entry
1. O=c1ccc2cc(O)c(O)cc2o1
2. CN(CCc1ccc(O)c(O)c1)c1ccncc1
3. COc1ccc2c(c1)C(=O)C(N)CC2 (stereo not given)
4. Oc1ccc(CCNc2c3c(nc4ccccc24)CCCC3)cc1O

1: 4.35; 2: 5.08; 3: 4.13; 4: 4.99

# batch size: 5; output pIC50 per entry
1. CCOc1cccc(-c2nc(-c3ccc(O)c(O)c3)cs2)c1
2. CCC(C)c1ccc(N)c(O)c1 (stereo not given)
3. Oc1ccc(CCNc2cccc3ccccc23)cc1O
4. Oc1ccc(CCN2CCc3ccccc3C2)cc1O
5. Oc1ccc(-c2csc(Cc3cc4ccccc4[nH]3)n2)cc1O

1: 5.02; 2: 4.71; 3: 5.27; 4: 4.65; 5: 4.90
